system: NCI-H661 (Non-Small Cell Lung Carcinoma); assay: combination Emax (second highest fraction inhibited in the dose matrix, 72 h); higher = more inhibition; extreme values may be limits of the assay
# combination Emax per entry
Enter a number only.

Study these solved cases before continuing.
compound="COc1cccc(OCCCN)c1-c1cc(Nc2cnc(C#N)cn2)n[nH]1 [Prexasertib] + CCc1c2c(nc3ccc(O)cc13)-c1cc3c(c(=O)n1C2)COC(=O)[C@]3(O)CC [SN-38] (first compound max 1 µM, 7x7, partner max 0.3 µM)" observed_property="combination Emax" numeric_result=0.889
compound="NC1(C(=O)N[C@@H](CCO)c2ccc(Cl)cc2)CCN(c2ncnc3[nH]ccc23)CC1 [Capivasertib] + CC(=O)c1c(C)c2cnc(Nc3ccc(N4CCNCC4)cn3)nc2n(C2CCCC2)c1=O [Palbociclib] (first compound max 10 µM, 7x7, partner max 10 µM)" observed_property="combination Emax" numeric_result=0.368
compound="COc1nnc2ccc(N3CCC(c4ccc(OCCN5CCN(C)C(=O)[C@H]5C)cc4)CC3)nn12 [AZD5153] + CN(CC[C@H](CSC1=CC=CC=C1)NC2=C(C=C(C=C2)S(=O)(=O)NC(=O)C3=CC=C(C=C3)N4CCC(CC4)[C@H](C5=CC=CC=C5C6=CC=C(C=C6)Cl)O)S(=O)(=O)C(F)(F)F)CCO [AZD4320] (first compound max 1 µM, 7x7, partner max 1 µM)" observed_property="combination Emax" numeric_result=0.272

Any idea what its combination Emax is? The compound is COc1cccc2c1C(=O)c1c(O)c3c(c(O)c1C2=O)C[C@@](O)(C(=O)CO)C[C@@H]3O[C@H]1C[C@H](N)[C@H](O)[C@H](C)O1 [Doxorubicin] + Cc1cc2ncnn2cc1Nc1ncc2c(n1)n(C1CCOCC1)c(=O)n2C [AZD7648] (first compound max 1 µM, 7x7, partner max 10 µM) 0.753

Also CC(=O)c1c(C)c2cnc(Nc3ccc(N4CCNCC4)cn3)nc2n(C2CCCC2)c1=O [Palbociclib] + Cc1c2c(nn1C)CSCc1cc(n(C)n1)CSc1cc(c3ccccc3c1)OCCCc1c(C(=O)O)n(C)c3c-2c(Cl)ccc13 [AZD5991] (first compound max 10 µM, 7x7, partner max 1 µM) ? 0.631
